experimentNotes: survival rescue of mitochondrial mutant cells in low glucose, primary screen, MELAS cybrids, Rieske KO mouse fibroblasts, CellTiter-Glo (AID 1508586);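 note: z relative to plate mean and SD of compound and empty wells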
conditionSet: Rieske KO mouse fibroblast survival, CellTiter-Glo 72 h

| molSmiles | z-score |
| --- | --- |
| CCn1c(-c2nonc2N)nc2cncc(C(=O)N3CCNCC3)c21 | 0.0786 |
| Oc1cccc(-c2nc(-c3ccccc3)[nH]c2-c2ccncc2)c1 | -0.653 |
| NS(=O)(=O)c1ccc(N=Nc2c(O)[nH]c3cccc(CCc4ccncc4)c23)cc1 | -0.178 |
| CS(=O)(=O)CCN(CC#N)Cc1ccc(-c2ccc3ncnc(Nc4ccc(OCc5cccc(F)c5)c(Cl)c4)c3c2)o1 | -0.288 |
| COc1cc(/C=N/Nc2ncnc3[nH]ncc23)ccc1O | -0.093 |
| O=C(Nc1ccc(Oc2ccc3nc(NC(=O)c4ccccc4)[nH]c3c2)cc1)Nc1cc(C(F)(F)F)ccc1F | 1.84 |
| CCOc1ccc2c(-c3ccnc(Nc4cc(OC)cc(C(F)(F)F)c4)n3)cnn2n1 | -0.17 |
| Nc1nc2ncc(CNc3ccc(C(=O)N[C@@H](CCC(=O)O)C(=O)O)cc3)nc2c(=O)[nH]1 | -0.293 |
| O=C(NCC1CC1)c1ccc(-c2cccc(C(=O)NC3CC3)c2)cc1 | -0.418 |
| N#Cc1c(NC(=O)CN2CCOCC2)sc2c1CCCC2 | -0.17 |

----------
Tested on: R275C/beta1
experimentNotes: modulators of BK channel variants, profiling panel, selectivity assay, cell-based, U2OS BacMam, thallium flux, beta subunits (AID 1259406);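 note: initial slope of Thallos dye fluorescence rise after thallium is added; log ratio against the mean of 0.3% DMSO vehicle wells on the same plate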
conditionSet: at 30 µM
# binarize log fold change Tl+ flux: threshold 0.001 inclusive, high side fulfilled, low side not fulfilled

| compound | systemTested | className |
| --- | --- | --- |
| CC(C)(C)NCC(O)COc1cccc2c1C[C@H](O)[C@H](O)C2 (stereo not given in full) | R275C/beta1 | not fulfilled |
| CC(=O)[C@H]1CC[C@H]2[C@@H]3C[C@H](C)C4=CC(=O)CC[C@]4(C)[C@H]3[C@@H](O)C[C@]12C | R275C/beta1 | fulfilled |
| CN=C(NC#N)NCCSCc1nc[nH]c1C | R275C/beta1 | not fulfilled |
| CCCCNc1cc(C(=O)O)cc(S(N)(=O)=O)c1Oc1ccccc1 | R275C/beta1 | fulfilled |
| CN1CCCC(n2nc(Cc3ccc(Cl)cc3)c3ccccc3c2=O)CC1 (stereo not given) | R275C/beta1 | fulfilled |
| CC(COc1ccccc1)NC(C)C(O)c1ccc(O)cc1 (stereo not given) | R275C/beta1 | not fulfilled |
| COc1cc2nc(N3CCN(C(=O)c4ccco4)CC3)nc(N)c2cc1OC | R275C/beta1 | not fulfilled |
| COc1ccc2cc(CCC(C)=O)ccc2c1 | R275C/beta1 | not fulfilled |
| CC1(C)O[C@@H]2C[C@H]3[C@@H]4C[C@H](F)C5=CC(=O)C=C[C@]5(C)[C@H]4[C@@H](O)C[C@]3(C)[C@]2(C(=O)CO)O1 | R275C/beta1 | not fulfilled |
| CN(C)CCCN1c2ccccc2CCc2ccc(Cl)cc21 | R275C/beta1 | fulfilled |

----------
experimentNotes: growth inhibition of RCMB18 medulloblastoma cells, cell-based, cisplatin and BGB IC40 combos (AID 1671462);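 note: cells exposed to compound for four days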
conditionSet: cisplatin combo, at 5 µM, stronger effect = higher value
recordedMetric: inhibition (%)

| compound | resultNumber |
| --- | --- |
| CCN(CC)CCCC(C)Nc1c2ccc(Cl)cc2nc2ccc(OC)cc12 (stereo not given) | 92.9 |
| CCn1cc(C(=O)O)c(=O)c2cc(F)c(N3CCNCC3)cc21 | -71.7 |
| O=C1c2c(O)ccc(O)c2C(=O)c2c(NCCNCCO)ccc(NCCNCCO)c21 | 70.8 |
| O=c1[nH]cc(F)c(=O)[nH]1 | 11.8 |
| CC(=O)OCC(CCn1cnc2cnc(N)nc21)COC(C)=O | -24.5 |

----------
System: R275C/beta1
experimentNotes: modulators of BK channel variants, profiling panel, selectivity assay, cell-based, U2OS BacMam, thallium flux, beta subunits (AID 1259406);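 note: initial slope of Thallos dye fluorescence rise after thallium is added; log ratio against the mean of 0.3% DMSO vehicle wells on the same plate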
conditionSet: at 30 µM
recordedMetric: log fold change Tl+ flux

| molecule | systemTested | recordedMetric | resultNumber |
| --- | --- | --- | --- |
| Nc1ccc(S(=O)(=O)c2ccc(N)cc2)cc1 | R275C/beta1 | log fold change Tl+ flux | -0.0191 |
| CC(=O)OCC(=O)[C@@]1(O)CC[C@H]2[C@@H]3CCC4=CC(=O)C=C[C@]4(C)[C@H]3[C@@H](O)C[C@@]21C | R275C/beta1 | log fold change Tl+ flux | 0.0604 |
| CC[C@H](C)C(=O)O[C@H]1C[C@@H](C)C=C2C=C[C@H](C)[C@H](CC[C@@H]3C[C@@H](O)CC(=O)O3)[C@H]21 | R275C/beta1 | log fold change Tl+ flux | 0.0657 |
| CCOc1ccc2ccccc2c1C(=O)N[C@@H]1C(=O)N2[C@@H]1SC(C)(C)[C@@H]2C(=O)O | R275C/beta1 | log fold change Tl+ flux | 0.00845 |
| CC(C)NCC(O)c1cc(O)cc(O)c1 (centres undefined) | R275C/beta1 | log fold change Tl+ flux | -0.038 |
| C[C@]12CCC(=O)C=C1CC[C@@H]1[C@@H]2[C@@H](O)C[C@@]2(C)[C@H]1CC[C@]2(O)C(=O)CO | R275C/beta1 | log fold change Tl+ flux | -0.0128 |
| CN(C)CCC=C1c2ccccc2CCc2ccccc21 | R275C/beta1 | log fold change Tl+ flux | 0.106 |
| CC(C)Oc1ccc2c(=O)c(-c3ccccc3)coc2c1 | R275C/beta1 | log fold change Tl+ flux | -0.122 |
| CN1CCN(CCCN2c3ccccc3Sc3ccc(C(F)(F)F)cc32)CC1 | R275C/beta1 | log fold change Tl+ flux | 0.287 |

----------
experimentNotes: glucagon-like peptide 1 release enhancers, primary assay, NCI-H716 cell line, NPC library (AID 1117341); note: reference of the scale not given here
conditionSet: NCI-H716 cells, at 10 µM, stronger effect = higher value

| compound | GLP1 secretion stimulation, % |
| --- | --- |
| O=C(O)c1cc(=O)c2c3nc4ccccc4oc-3cc(=O)c2[nH]1 | -7.4 |
| CCOC(=O)C1=C(C)NC(C)=C(C(=O)OC)C1c1cccc([N+](=O)[O-])c1 (stereo not drawn) | -0.6 |
| CC(=O)N1CCN(c2ccc(O)cc2)CC1 | 3.8 |
| NC(=O)N1c2ccccc2CC(=O)c2ccccc21 | 0 |
| Nc1ccc(S(=O)(=O)Nc2ccccc2)cc1 | 3.7 |
| COc1ccc(C=CC(=O)O)cc1 | -4.2 |
| CN(C)CCOC(C)(c1ccccc1)c1ccccn1 (stereo not drawn) | 1 |
| CN(C)CCN1CCN(c2cccc(Cl)c2)C1=O | 4 |
| CCCCC(C)(O)CC=C[C@H]1[C@H](O)CC(=O)[C@H]1CCCCCCC(=O)OC (stereo partly drawn) | -1.9 |
| Oc1ccc(CCNCCCCCCNCCc2ccccc2)cc1O | 0.6 |
| c1ccc2c(c1)CCCC2C1=NCCN1 (stereo not drawn) | 0.9 |
| CN1CCN(N)CC1 | 0.5 |
| CCCNCC(O)COc1ccccc1C(=O)CCc1ccccc1 (stereo not drawn) | -2.7 |
| CC(O)CCCCn1c(=O)c2c(ncn2C)n(C)c1=O (stereo not drawn) | -3.4 |
| COC(=O)Nc1nc2ccc(C(=O)c3ccccc3)cc2[nH]1 | 2.2 |
| Cc1ccc(C(=O)C(=O)O)cc1C | -3.1 |
| CCCCCOc1ccccc1/C(=C\SC)n1ccnc1 | 3.8 |
| NNc1nnc(NN)c2ccccc12 | -3.3 |
| CN(C)C(=O)CNC(=O)Cc1ccccc1 | -1.3 |
| COc1cc([C@@H]2c3cc4c(cc3[C@@H](O[C@@H]3O[C@@H]5CO[C@@H](C)O[C@@H]5[C@H](O)[C@@H]3O)[C@H]3COC(=O)[C@H]23)OCO4)cc(OC)c1O | 0.6 |
| O=C(O)c1cc(=O)c2c(OCC(O)COc3cccc4oc(C(=O)O)cc(=O)c34)cccc2o1 | -0.5 |
| CCN1CCN(c2cc(-c3ccc(F)cc3)c3c(n2)CCCCCC3)CC1 | 11.2 |
| C[C@]12CCC(=O)C=C1CC[C@@H]1[C@@H]2[C@@H](O)C[C@@]2(C)[C@H]1CC[C@]2(O)C(=O)COC(=O)CCC(=O)O | -1.5 |
| FC1(F)C(F)(F)C(F)(F)C2(F)C(F)(F)C(F)(F)C(F)(F)C(F)(F)C2(F)C1(F)F (stereo not drawn) | -0.8 |
| COC(=O)C(CN)c1c[nH]c2ccc(OC)cc12 (stereo not drawn) | 7.7 |
| OCc1ccc(Cl)cc1Cl | -5 |
| CCOCCOC(=O)/C=C/c1ccc(OC)cc1 | -4 |
| CC(C)(C)C1CCC(CC2=C(O)c3ccccc3C(=O)C2=O)CC1 (stereo not drawn) | 5.8 |
| CC(C)[C@H](N)C(=O)O | -4.1 |
| COc1cc(C(=S)N2CCOCC2)cc(OC)c1OC | -0.3 |
| CC(C)[N+](C)(CCOC(=O)C1c2ccccc2Oc2ccccc21)C(C)C | 0.4 |
| N#C[C@H]1C[C@H]2C[C@@H]2N1C(=O)[C@@H](N)C12CC3CC(CC(O)(C3)C1)C2 | 1.4 |
| CN(C)CC/C=C1\c2ccccc2COc2ccccc21 | 5.2 |
| CCCCN=C(N)N=C(N)N | 2.1 |
| CC12CCC(C[N+](C)(CCC[N+](C)(C)C)C1)C2(C)C (stereo not drawn) | -3.2 |
| O=C1CC(c2ccc(Cl)cc2)CC(=O)N1 | 3.8 |
| NC(=S)N=Nc1ccc(NN=C(N)N)cc1 | -3.7 |
| CN[C@H]1CC[C@@H](c2ccc(Cl)c(Cl)c2)c2ccccc21 | 7.5 |
| O=C1OC2(c3ccccc31)c1cc(Br)c(O)c(Br)c1Oc1c2cc(Br)c(O)c1Br | 17.7 |
| Cc1nc2n(c(=O)c1CCN1CCC(C(=O)c3ccc(F)cc3)CC1)CCS2 | 5.4 |
| O=C(Nc1ccc(Cl)cc1)Nc1ccc(Cl)c(C(F)(F)F)c1 | -3.9 |
| O=C(O)/C=C\C(=O)O | -3.8 |
| CCCC(=O)Nc1ccc(O)c(C(C)=O)c1 | -3.4 |
| CC(=O)OC(C)OC(=O)C(C)c1ccc(-c2ccccc2)c(F)c1 (stereo not drawn) | -1.1 |
| OC[C@]1(O)OC[C@@H](O)[C@H](O)[C@@H]1O | -6 |
| Cc1ccc(S(=O)(=O)NC(=O)NC2CCCCCCC2)cc1 | 3.1 |
| CCO[C@@H]1O[C@H](C(COCc2ccccc2)OCc2ccccc2)[C@H](OCc2ccccc2)[C@H]1O (stereo partly drawn) | 6.9 |
| CCCC(O)C(CC)CO (stereo not drawn) | -0.4 |

Reference source: PubChem BioAssay
